This collection of values is drawn from patent US7329737.

# System: T1, hK1 (human tissue kallikrein 1), recombinant (human, UniProt P06870 25-262)
# T1 construct: Expressed in P. pastoris from KLK1 cDNA and purified; enzymatically active; also called KLK1; Recombinant (Pichia) Kallikrein
# Protocol Description: SPR
// koff lookup, one value per entry
The reply must contain the numeric value and, after it, the unit.

Below: 2 binders and their reported koff.
Binder: M0102-C02 (Fab, V domains shown) VH: EVQLLESGGGLVQPGGSLRLSCAASGFTFSHYLMHWVRQAPGKGLEWVSSIYPSGGKTQYADSVKGRFTISRDNSKNTLYLQMNSLRAEDTAVYYCARVFGYYDFWSGYPGAFDYWGQGTLVTVSS VL: DIQMTQSPSSLSASVGDRVTITCRASQGISSSLAWYQQKPGKVPKLLIYAASTLQSGVPSRFSGSGSGTDFTLTISSLQPEDFATYYCQQSYSTPWTFGQGTKVEIKR
Assay Result: 0.00628 s⁻¹
//
Binder: M0102-H11 (Fab, V domains shown) VH: EVQLLESGGGLVQPGGSLRLSCAASGFTFSKYPMTWVRQAPGKGLEWVSSISSSGGKTQYADSVKGRFTISRDNSKNTLYLQMNSLRAEDTAVYYCTRGGSSTLYFMDVWGQGTTVTVSS VL: DIQMTQSPATLSLSPGERATLSCRASQSVSSYLAWYQQKPGQAPRLLIYGASSRATGIPDRFSGSGSGTDFTLTISSLEPEDFAVYYCQQRGGWPLTFGGGTKVEIRR
Assay Result: 0.00741 s⁻¹

Alright, here's another binder for you.
Given the entry M0136-F08 (Fab, V domains shown) VH: EVQLLESGGGLVQPGGSLRLSCAASGFTFSHYKMGWVRQAPGKGLEWVSSIRPSGGATKYADSVKGRFTISRDNSKNTLYLQMNSLRAEDTAVYYCARVGIWDAFDIWGQGAMVTVSS VL: DIQMTQSPGTLSLSPGERATLSCRASQSVSSSYLAWYQQKPGQAPRLLIYDASNRATGIPARFSGSGSGTDFTLTISSLEPEDFAVYYCQQWDTFGQGTKLEIKR , report its measured koff.
0.00284 s⁻¹
